From: PubChem BioAssay (NCI)

Test system: RPMI-8226 leukemia
experiment_summary: NCI-60 one-dose screen, 48 h
assay_conditions: 10 µM unless noted
About 83,000 compounds went through this panel and 20% of them were active in at least one assay; those are over-represented in the sample as a whole. Active and inactive are the calls of the source. Rule for the calls: active = growth percent below 10; inactive = the rest.
Classes used: class 1 for active, class 0 for inactive

                              smiles_record    group
0             CCOC(=O)c1sc(N)c(C(=O)OCC)c1C  class 0
1  N#Cc1c(-c2ccc(Cl)cc2)nc(SCc2ccc([N+](=O)[O-])cc2)nc1N1CCNCC1  class 1
2  CC(C)Sc1nc(Nc2ccc(S(N)(=O)=O)cc2)c(C#N)c(-c2ccc(F)cc2)n1  class 0
3  COC(=O)c1ccc(NC(=S)N2CCc3ccc([N+](=O)[O-])cc3C2)cc1O  class 0
4  [Cl][Ru].c1ccc(-c2cccc(-c3ccccn3)n2)nc1.c1ccc(-c2ccnc3c2ccc2c(-c4ccccc4)ccnc23)cc1  class 1
5  COc1cc(/C=C/C(=O)c2ccc(F)cc2)ccc1Oc1nc(NCCO)nc(N2CCOCC2)n1  class 1
6          N/C(=N\c1nc2c(Br)cccc2s1)C(Br)Br  class 1
7   COc1cc(N=Cc2sc(Nc3nccs3)nc2O)cc(OC)c1OC  class 0
8  CC(=O)Nc1cc(F)cc(-c2ccc3[nH]cc(-c4ccccc4)c3n2)c1  class 1
9  N#Cc1c(-c2ccc(Cl)cc2)nc(SCc2ccccc2)nc1N1CCNCC1  class 0
